TGI for assorted compounds
Tested on: UO-31 renal
protocol_description: NCI tumour cell line growth inhibition, 48 h
result_type: TGI

>>> meas_value("CC(C)[C@@H](C)[C@@]1(C)C[C@@H]1[C@@H](C)[C@H]1CC[C@@H]([C@@H]2CC=C3C[C@@H](O)CC[C@]3(C)C2=O)[C@]1(C)CCO")
"28.5 µM"
>>> meas_value("Cc1cc(Cl)ccc1NC(=O)C(=O)C(C(=O)c1ccccc1)C1OC(=O)c2ccccc21 (stereo not drawn)")
"> 100 µM"
>>> meas_value("CCN=C(C#N)NCC")
"> 100 µM"
>>> meas_value("COc1cc(C=O)cc(O)c1O")
"> 100 µM"
>>> meas_value("CC1C2CC=CC(=O)[C@@]2(C)CCC12OCCO2 (stereo partly drawn)")
"> 100 µM"
>>> meas_value("COc1ccc(CCc2cc(OC)c(O)c(OC)c2)cc1")
"> 100 µM"
>>> meas_value("CC1CC[P+](c2ccccc2)(c2ccccc2)CC1")
"> 100 µM"
>>> meas_value("CCN(Cc1ccc(F)cc1)c1ccc(CO)c(OC)c1")
"35.6 µM"
>>> meas_value("Nc1ncnc2c1ccn2[C@@H]1O[C@H]([C@H](O)c2ccc(Cl)c(F)c2)[C@@H](O)[C@H]1O")
"> 100 µM"
>>> meas_value("C=C(CCCO)[C@@H]1CC[C@@](C)(O)[C@H]1C")
"> 100 µM"
>>> meas_value("Cc1cc2nc(N3C(=O)/C(=C/c4ccc(N(C)C)cc4)N=C3c3ccccc3)sc2cc1C")
"87.4 µM"
>>> meas_value("CN(CCCn1ccnc1[N+](=O)[O-])CCCn1ccnc1[N+](=O)[O-]")
"> 100 µM"
>>> meas_value("CN(C(=O)c1ccco1)C(=S)N1CCN(c2ccccn2)CC1")
"> 100 µM"
>>> meas_value("COc1cc(/C=N/NC2=NCCCCN2)ccc1O")
"> 100 µM"
>>> meas_value("[CH3][Sn]([CH3])([CH3])[O][N+](=O)[O-]")
"> 10 µM"
>>> meas_value("[N-]=[N+]=CC(=O)CCC(=O)N(c1ccccc1)c1ccccc1")
"> 10 µM"
>>> meas_value("COc1cnc2c(c1)C(=O)c1c-2n(CCCN2CCNCC2)c(=O)c2cc([N+](=O)[O-])ccc12")
"1.7 µM"
>>> meas_value("COC(=O)C1=NN2c3ccccc3CN([C@@H](C)c3ccccc3)C(=O)[C@@H]2[C@H]1c1ccccc1")
"> 100 µM"
>>> meas_value("COc1cccc(/C=C\\c2ccc(O)cc2)c1")
"33.7 µM"
>>> meas_value("C=C1Cc2cc(OC)c(OC)c(OC)c2-c2ccc(SC)c(=O)cc21")
"6.96 µM"
>>> meas_value("Cn1c(=O)c(Cl)c(N=[N+]=[N-])c2ccccc21")
"> 100 µM"
>>> meas_value("O=C1c2ccccc2C(=O)c2c(NCCCN3CCOCC3)ccc(NCCCN3CCOCC3)c21")
"17.4 µM"
>>> meas_value("CC1(C)OC(=O)C(Cc2ccccc2)(Cc2ccccc2)C(=O)O1")
"> 100 µM"
>>> meas_value("Cc1csc(NNC(=O)Nc2ccccc2)n1")
"> 100 µM"
>>> meas_value("CNC(=O)NS(=O)(=O)c1ccc(C)cc1")
"> 100 µM"
>>> meas_value("C=CC1(C)OC2(CCN(C(=O)OCC)CC2)OC1C (stereo not drawn)")
"> 100 µM"
>>> meas_value("COC(=O)[C@]12CC[C@@H](C)[C@H](C)[C@@H]1C1=CC[C@@H]3[C@@]4(C)C(C=O)=C[C@@](C)(COC(=O)/C=C/c5ccccc5)[C@@H]4[C@H](O)C[C@@]3(C)[C@]1(C)CC2")
"20.2 µM"
>>> meas_value("CSc1c(C#N)c(S)[nH]c(=O)c1C#N")
"87.5 µM"
>>> meas_value("COC(=O)C1C=CCON2CCc3c(n(S(=O)(=O)c4ccccc4)c4ccccc34)C12 (stereo not drawn)")
"> 100 µM"
>>> meas_value("O=C(O[C@H]1CCN2C[C@H]3C[C@H](CN4C(=O)CCC[C@H]34)[C@@H]2C1)c1ccc(O)cc1")
"> 100 µM"
>>> meas_value("O=C1/C(=C/c2ccc(Cl)cc2)CSC/C1=C\\c1ccc(Cl)cc1")
"3.93 µM"
>>> meas_value("COc1ccc(/C=C/C(=O)c2ccc(OC(=O)/C=C/c3ccccc3)cc2)cc1")
"> 91.5 µM"
>>> meas_value("Cn1cnc([N+](=O)[O-])c1Sc1nccc(=O)[nH]1")
"> 100 µM"

###

System: SK-MEL-28 melanoma
protocol_description: NCI tumour cell line growth inhibition, 48 h; in the data active = GI50 below about 0.43 µM; inactive = the rest
Labels: YES = active, NO = inactive

>>> assigned_label("N#CC1C(=O)NC(c2ccccc2[N+](=O)[O-])c2sc3c(F)cccc3c21 (centres undefined)")
"NO"
>>> assigned_label("C/C(=N/N=C(N)N)c1ccc(NC(=O)Nc2ccc(/C(C)=N/N=C(N)N)cc2)cc1")
"NO"
>>> assigned_label("CC1=C([Se]CC(OC(=O)[C@@H](CO)NC(=O)OC(C)(C)C)C(=O)NCCCCCC(=O)OCc2ccccc2)C(=O)c2ccccc2C1=O (some centres undefined)")
"NO"
>>> assigned_label("C=C1C(=O)O[C@H]2[C@H]1CC/C(COC(=O)NCCCCCCCCNC(=O)OC/C1=C/CC[C@@]3(C)O[C@H]3[C@H]3OC(=O)C(=C)[C@@H]3CC1)=C\\CC[C@@]1(C)O[C@@H]21")
"YES"
>>> assigned_label("Cc1ccc(S(=O)(=O)Nc2ccc(-c3cc(-c4cccc(F)c4)c(C#N)c(N)n3)cc2)cc1")
"NO"
>>> assigned_label("Cc1nccc2c3ccc(OCc4cn(-c5ccc(Cl)cc5)nn4)cc3n(CC(C)C)c12")
"NO"
>>> assigned_label("C[CH2][Sn]([CH2]C)([O]C(=O)c1ccc(OC)c(OC)c1OC)[O]C(=O)c1ccc(OC)c(OC)c1OC")
"NO"
>>> assigned_label("Nc1ncnc2c1ccn2[C@@H]1O[C@H]([C@H](O)c2ccc(Cl)c(F)c2)[C@@H](O)[C@H]1O")
"NO"
>>> assigned_label("Cc1cc(=O)oc2cc(OC/C=C3\\CCC(=O)O3)ccc12")
"NO"
>>> assigned_label("C[C@@H](Oc1cc(-n2cnc3ccc(OC[C@@H](O)CO)cc32)sc1C(N)=O)c1ccccc1Cl")
"YES"
>>> assigned_label("CCn1ccc(NS(=O)(=O)c2ccc(N)cc2)nc1=O")
"NO"
>>> assigned_label("CN1CCN(Cc2cc(NC(=O)c3cccc(C#Cc4cccc5[nH]nc(N)c45)c3)cc(C(F)(F)F)c2)CC1")
"NO"
>>> assigned_label("CCC[CH2][Pb]([Cl])([CH2]CCC)[CH2]CCC")
"YES"
>>> assigned_label("O=[N+]([O-])c1ccc(Sc2ccncn2)c([N+](=O)[O-])c1")
"NO"

###

Tested on: UACC-257 melanoma
protocol_description: NCI tumour cell line growth inhibition, 48 h
result_type: TGI

>>> meas_value("CN(C(=O)c1ccc(OCCCC(=O)O)c(Cl)c1Cl)C1CCCC1")
"> 100 µM"
>>> meas_value("COc1cc(/C=N/NC2=NCCCCN2)ccc1O")
"> 100 µM"
>>> meas_value("O=C1C2C3C=CC(C2C(=O)N1CN1CCSCC1)C1C2C(=O)N(CN4CCSCC4)C(=O)C2C31 (stereo not given)")
"> 100 µM"
>>> meas_value("O=C(O)Cc1cccc2c(=O)c3cccc([N+](=O)[O-])c3oc12")
"> 100 µM"
>>> meas_value("O=C(N/N=C/C=C/c1ccc([N+](=O)[O-])o1)c1ccc(C(=O)N/N=C/C=C/c2ccc([N+](=O)[O-])o2)cc1")
"> 30 µM"

###

Tested on: SK-OV-3 ovarian
protocol_description: NCI tumour cell line growth inhibition, 48 h
result_type: TGI

>>> meas_value("COC1=CC(=O)C2=C(C[C@@]3(C)C(=C2)C(CO)=CC[C@H]3O)C1=O")
"> 100 µM"
>>> meas_value("Fc1ccc(Nc2nc3ccccc3c3occc23)cc1")
"18.4 µM"
>>> meas_value("CN(C)c1ccc(N=C2C=CC(=O)c3ccccc32)cc1")
"> 100 µM"
>>> meas_value("COC(=O)/C(=N\\NC(N)=O)C(C(=O)C=C(C)C)C(=O)C(=O)Nc1ccc(Cl)c(Cl)c1 (stereo unspecified)")
"> 100 µM"
>>> meas_value("CN(C)c1ccc2nc(CC(O)(C(F)(F)F)C(F)(F)F)ccc2c1")
"> 10 µM"
>>> meas_value("FC(F)(F)c1cc(Nc2ccc3cc(OCCCN4CCOCC4)ccc3n2)ccc1Cl")
"4.87 µM"
>>> meas_value("CCCCCCCC(=O)[O][Hg][CH2]C1COC([CH2][Hg][O]C(=O)CCCCCCC)CO1 (stereo unspecified)")
"27.6 µM"
>>> meas_value("Cc1ccccc1C1CC(c2ccccc2)=NO1 (stereo unspecified)")
"> 100 µM"
>>> meas_value("CCCCCCCCOC(=O)c1cc([N+](=O)[O-])c(Sc2ncnc3nc[nH]c23)c([N+](=O)[O-])c1")
"25.3 µM"
>>> meas_value("COc1cc2c[n+](C)c3c(c2cc1OC)Cc1cc2c(cc1-3)OCO2")
"> 100 µM"
>>> meas_value("Nc1nc(=S)n(-c2ccc(Cl)cc2)c2nc3ccccc3cc12")
"> 100 µM"
>>> meas_value("COc1cc(/C=C2/C(=O)N(C(=O)OCc3ccccc3)C(Cc3cc(OC)c(OC)c(C)c3OC)C(=O)N2Cc2ccccc2)c(OC)c(C)c1OC (stereo unspecified)")
"> 100 µM"
>>> meas_value("NC(=O)C(=CNC(=S)Nc1cccc(C(F)(F)F)c1)C(N)=O")
"> 100 µM"
>>> meas_value("Cc1cc2nc(N3C(=O)/C(=C/c4ccc(N(C)C)cc4)N=C3c3ccccc3)sc2cc1C")
"> 100 µM"
>>> meas_value("O=C1CCCc2ccc3c(c21)CC1(Cc2ccccc2C1)C3")
"> 100 µM"
>>> meas_value("CCCCCCCCCCCCCB(O)O")
"> 100 µM"
